study system: Prostaglandin E synthase (Homo sapiens, UniProt O14684)
Sequence (O14684 whole entry): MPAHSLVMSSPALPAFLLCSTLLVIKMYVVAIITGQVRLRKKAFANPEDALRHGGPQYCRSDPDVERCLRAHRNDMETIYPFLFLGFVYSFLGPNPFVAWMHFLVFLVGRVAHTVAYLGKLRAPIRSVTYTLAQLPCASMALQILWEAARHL
assay explanation: Inhibition of full-length microsomal PGES-1 (unknown origin) expressed in Escherichia coli Rosetta(DE3) using PGH2 as substrate assessed as inhibition of PGH2 conversion to PGE2 incubated 15 mins prior to substrate addition measured after 1 min by EIA
Friendly reminder: IC50 below 4000 nM is true, at or above is false.

* CCn1c(CNC(=O)c2ccc(C)cc2)nnc1SCC(=O)Nc1cc([N+](=O)[O-])ccc1C | true
* Cc1ccc([N+](=O)[O-])cc1NC(=O)CSc1nnc(CNC(=O)COc2c(C)cccc2C)n1C | true
* CCn1c(CNc2ccc(C)cc2C)nnc1SCC(=O)Nc1ccc(C)cc1 | false
* CCOC(=O)c1ccc(NC(=O)CSc2nnc(CNc3c(C)cccc3C)n2C)cc1 | false
* CC1=NN(c2ccc([N+](=O)[O-])cc2)C(=O)/C1=N\Nc1ccccc1C(=O)O | true
* Cc1ccc(C)c(NC(=O)CSc2nnc(CNc3c(C)cccc3C)n2C)c1 | true
* CCn1c2ccccc2c2cc(-c3cc(C(=O)O)c4c(ccc5ccccc54)n3)ccc21 | true
* CCCCCCCSc1nnc(-c2ccc(OC)cc2)c(-c2ccc(OC)cc2)n1 | false
* Clc1ccc(/C=C/c2cc(-c3ccc(-c4ccccc4)cc3)nc3ccc4ccccc4c23)cc1 | true

====

Tested on: Prostaglandin G/H synthase 2 (COX-2)
assay explanation: Inhibition of COX-2 (unknown origin)-mediated TMPD oxidation using PGG2 as substrate at 100 uM incubated 15 mins prior to substrate addition measured after 36 secs by spectrophotometric analysis
condition parameters: Homo sapiens
endpoint name: inhibition

* O=C(O)CN1C(=O)/C(=C2/C(=O)N(CC(=O)O)c3ccccc32)SC1=S | 14.7%
* COc1cc(-c2cc(C(=O)O)c3c(ccc4ccccc43)n2)ccc1OCCCC#N | 1%
* COc1ccc(-c2nnc(SCC(=O)c3ccc4c(c3)Cc3ccccc3-4)nc2-c2ccc(OC)cc2)cc1 | < 1%
* CCOC(=O)C1=C(C)N=c2s/c(=C\c3ccc(-c4ccc(Cl)c(C(=O)O)c4)o3)c(=O)n2C1c1ccccc1Cl (stereo not given) | 12.9%
* Clc1ccc(/C=C/c2cc(-c3ccc(-c4ccccc4)cc3)nc3ccc4ccccc4c23)cc1 | 1.8%

====

study system: UniProt:P09917
Sequence (whole entry): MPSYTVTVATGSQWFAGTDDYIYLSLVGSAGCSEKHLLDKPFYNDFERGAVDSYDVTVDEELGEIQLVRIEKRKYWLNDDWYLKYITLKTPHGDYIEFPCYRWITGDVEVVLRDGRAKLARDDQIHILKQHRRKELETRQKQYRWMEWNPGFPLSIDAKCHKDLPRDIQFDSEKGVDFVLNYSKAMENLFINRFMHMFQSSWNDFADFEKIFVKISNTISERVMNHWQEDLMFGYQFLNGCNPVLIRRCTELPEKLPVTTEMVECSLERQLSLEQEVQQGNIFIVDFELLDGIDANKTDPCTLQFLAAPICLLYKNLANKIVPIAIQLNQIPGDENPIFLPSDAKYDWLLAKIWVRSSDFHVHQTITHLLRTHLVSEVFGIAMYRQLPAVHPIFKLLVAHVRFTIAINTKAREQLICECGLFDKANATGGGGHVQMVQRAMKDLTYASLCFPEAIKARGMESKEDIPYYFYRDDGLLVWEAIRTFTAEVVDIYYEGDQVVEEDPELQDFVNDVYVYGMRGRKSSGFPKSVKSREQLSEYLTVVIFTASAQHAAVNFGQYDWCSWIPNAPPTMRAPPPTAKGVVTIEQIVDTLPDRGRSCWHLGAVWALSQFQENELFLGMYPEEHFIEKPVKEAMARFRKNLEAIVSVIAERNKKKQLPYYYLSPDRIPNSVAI
assay explanation: Inhibition of 5-LOX (unknown origin) at 10 uM by human whole blood LTB4 assay
Everything with inhibition lower than 10% is false (0); everything else, including exactly 10%, is true (1).

- COc1cc(-c2cc(C(=O)O)c3c(ccc4ccccc43)n2)ccc1OCCCC#N: false (0)
- COc1cc(NC(=O)c2nn3c(C(F)(F)F)cc(-c4ccc(Br)cc4)nc3c2Cl)cc([N+](=O)[O-])c1: true (1)
- CC(c1ccccc1)N1C(=O)c2ccc(C(=O)Nc3cc(Cl)ccc3C(=O)O)cc2C1=O (stereo not given): false (0)
- O=C(O)CN1C(=O)/C(=C2/C(=O)N(CC(=O)O)c3ccccc32)SC1=S: false (0)
- Cc1ccc([N+](=O)[O-])cc1NC(=O)CSc1nnc(CNc2c(C)cccc2C)n1C: false (0)
- Cc1cc(C)c2oc(-c3ccc(C)c(NC(=O)c4cccc([N+](=O)[O-])c4)c3)nc2c1: true (1)
- COc1ccc(-c2nnc(SCC(=O)c3ccc4c(c3)Cc3ccccc3-4)nc2-c2ccc(OC)cc2)cc1: true (1)
- CCOC(=O)C1=C(C)N=c2s/c(=C\c3ccc(-c4ccc(Cl)c(C(=O)O)c4)o3)c(=O)n2C1c1ccccc1Cl (stereo not given): false (0)

====

study system: Prostaglandin E synthase (Homo sapiens, UniProt O14684)
assay explanation: Inhibition of PGES-1 in human whole blood assessed as LPS-induced PGE2 formation incubated for 15 mins prior to LPS addition measured after 24 hrs by EIA
endpoint name: IC50

• Clc1ccc(/C=C/c2cc(-c3ccc(-c4ccccc4)cc3)nc3ccc4ccccc4c23)cc1 = 8.5 µM
• O=C(N/N=C/c1ccc([N+](=O)[O-])cc1)c1cc(OCc2ccccc2)c(OCc2ccccc2)c(OCc2ccccc2)c1 = 200 µM
• CC1=NN(c2ccc([N+](=O)[O-])cc2)C(=O)/C1=N\Nc1ccccc1C(=O)O = 17 µM
• Cc1nc2sc3c(c2c(=O)n1/N=C/c1cc([N+](=O)[O-])cc([N+](=O)[O-])c1O)CCCC3 = 130 µM
• Cn1c(=O)c(/C(=N/Nc2ccc([N+](=O)[O-])cc2[N+](=O)[O-])c2nnn[nH]2)c(O)c2ccccc21 = > 200 µM
• COc1ccc(-c2nnc(SCC(=O)c3ccc4c(c3)Cc3ccccc3-4)nc2-c2ccc(OC)cc2)cc1 = 0.3 µM
• CCn1c2ccccc2c2cc(-c3cc(C(=O)O)c4c(ccc5ccccc54)n3)ccc21 = > 200 µM
• Cc1ccc([N+](=O)[O-])cc1NC(=O)CSc1nnc(CNc2c(C)cccc2C)n1C = 0.7 µM

====

Tested on: Prostaglandin G/H synthase 1 (COX-1)
assay explanation: Inhibition of COX-1 (unknown origin)-mediated TMPD oxidation using PGG2 as substrate at 100 uM incubated 15 mins prior to substrate addition measured after 36 secs by spectrophotometric analysis
condition parameters: Homo sapiens
endpoint name: inhibition

* COc1ccc(-c2nnc(SCC(=O)c3ccc4c(c3)Cc3ccccc3-4)nc2-c2ccc(OC)cc2)cc1 | 2.1%
* Cc1ccc([N+](=O)[O-])cc1NC(=O)CSc1nnc(CNc2c(C)cccc2C)n1C | < 1%
* CCOC(=O)C1=C(C)N=c2s/c(=C\c3ccc(-c4ccc(Cl)c(C(=O)O)c4)o3)c(=O)n2C1c1ccccc1Cl (stereo not drawn) | < 1%
* COc1cc(-c2cc(C(=O)O)c3c(ccc4ccccc43)n2)ccc1OCCCC#N | 4.1%
* Clc1ccc(/C=C/c2cc(-c3ccc(-c4ccccc4)cc3)nc3ccc4ccccc4c23)cc1 | < 1%
* CC1=NN(c2ccc([N+](=O)[O-])cc2)C(=O)/C1=N\Nc1ccccc1C(=O)O | 1%
* O=C(O)CN1C(=O)/C(=C2/C(=O)N(CC(=O)O)c3ccccc32)SC1=S | < 1%
* COc1cc(NC(=O)c2nn3c(C(F)(F)F)cc(-c4ccc(Br)cc4)nc3c2Cl)cc([N+](=O)[O-])c1 | < 1%

====

Items are presented alongside their recorded IC50.
study system: Prostaglandin E synthase (Homo sapiens)
assay explanation: Inhibition of PGES-1 in human whole blood assessed as LPS-induced PGE2 formation incubated for 15 mins prior to LPS addition measured after 24 hrs by EIA
endpoint name: IC50 (µM)

* CC(c1ccccc1)N1C(=O)c2ccc(C(=O)Nc3cc(Cl)ccc3C(=O)O)cc2C1=O (stereo not drawn) | 1.4
* COc1cc(NC(=O)c2nn3c(C(F)(F)F)cc(-c4ccc(Br)cc4)nc3c2Cl)cc([N+](=O)[O-])c1 | 8.5
* O=C(O)CN1C(=O)/C(=C2/C(=O)N(CC(=O)O)c3ccccc32)SC1=S | 3.8
* CC1=NN(c2ccc(Cl)c(Cl)c2)C(=O)/C1=C/c1cc(Br)ccc1OCC(=O)O | 18.5
* COc1cc(-c2cc(C(=O)O)c3c(ccc4ccccc43)n2)ccc1OCCCC#N | 4.4
* O=C(COC(=O)c1ccc2c(c1)C(=O)N(c1ccc(Oc3ccccc3)cc1)C2=O)c1ccc(Br)cc1 | 200
* COc1ccc(CN2C(=O)/C(=C/c3ccc(OCc4ccc([N+](=O)[O-])cc4)c(Br)c3)S/C2=N\c2ccccc2)cc1 | 120
* Cc1ccc(C(=O)O)cc1-c1ccc(/C=C2\SC(=O)N(CC(=O)Nc3ccccc3)C2=O)o1 | 160
* CCOC(=O)C1=C(C)N=c2s/c(=C\c3ccc(-c4ccc(Cl)c(C(=O)O)c4)o3)c(=O)n2C1c1ccccc1Cl (stereo not drawn) | 6.5
* Cc1cc(C)c2oc(-c3ccc(C)c(NC(=O)c4cccc([N+](=O)[O-])c4)c3)nc2c1 | 6.2
* C/C(=N\NC(=O)c1ccc([N+](=O)[O-])c(C)c1)c1cccc(NC(=O)COc2ccc(Cl)cc2Cl)c1 | 66
